Target: FAM19A5 protein (Homo sapiens, UniProt Q7Z5A7)
Assay: competitive inhibition ELISA; competitor: coated LRRC4B(36-576)-hFc
READOUT: Inhibition rate (%)
Please give a number only; it is taken to be in %.

{"BINDER": "GYTYFTTVTVETLATQPGEE [FB-20[A13]]", "Inhibition rate (%)": 51.4}

Req: Please look up its Inhibition rate (%): GYTYATTVTVETLETQPGEE [FB-20[A4]]
Resp: 2.7

Req: Bench note: what Inhibition rate (%) did GYNYFTTVTVETLETQPGEE [FB-20[N2]] show?
Resp: -0.7
